Where do the numbers come from? From patent US20230104936A1.

Tested on: TFEB
procedure_text: TFEB nuclear translocation assay, HeLa wt cells
Type: cell-based
setup_conditions: Homo sapiens, HeLa, 2 h, 2 hrs compound treatment, Table 1 does not say HeLa wt or TRPML1 KO
As shown below, each of these compounds has a reported AC50 value.

Solved cases below.
CC(C)c1ccc(S(=O)(=O)Nc2ccccc2N2CCC3(CC2)COC(C)(C)C3)cc1 = ≤ 2000 nM
CC(N1CCN(c2ccccc2NS(=O)(=O)Cc2ccccc2)CC1)C(F)(F)F (centres unmarked) = ≤ 2000 nM
CS(=O)(=O)c1ccc(S(=O)(=O)Nc2ccccc2N2CCC(c3ccc(F)cc3F)CC2)cc1 = ≤ 2000 nM

// map COC1(C)CCN(c2ccccc2NS(=O)(=O)c2ccc(S(=O)(=O)N(C)C)cc2)CC1 to recorded AC50 (system: TFEB)
≤ 2000 nM
